Data provenance is paper PMC12096829.

# EXPERIMENTAL TARGET: Athe_2574 (Anaerocellum bescii, UniProt A0ABY1S640)
# Sequence (A0ABY1S640 entry or part of it): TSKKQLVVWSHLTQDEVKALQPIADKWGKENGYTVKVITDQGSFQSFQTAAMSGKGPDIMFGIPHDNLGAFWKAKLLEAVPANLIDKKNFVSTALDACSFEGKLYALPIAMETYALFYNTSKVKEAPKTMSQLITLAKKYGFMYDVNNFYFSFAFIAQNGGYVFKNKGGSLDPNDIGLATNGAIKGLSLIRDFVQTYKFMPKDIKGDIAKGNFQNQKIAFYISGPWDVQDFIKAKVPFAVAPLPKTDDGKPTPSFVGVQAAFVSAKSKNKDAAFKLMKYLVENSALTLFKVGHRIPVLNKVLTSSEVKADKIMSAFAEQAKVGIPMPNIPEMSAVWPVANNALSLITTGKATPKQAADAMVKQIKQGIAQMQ
# EXPERIMENT: biochemical
# Format: binding
# COND: ITC 25 °C
Hi there, I'd appreciate the recorded TΔS for every entry that follows.
Write the number in kcal/mol without appending the unit.

Ask: Given the compound OC[C@H]1O[C@H](O[C@H]2[C@H](O)[C@@H](O)[C@@H](O[C@H]3[C@H](O)[C@@H](O)[C@@H](O[C@H]4[C@H](O)[C@@H](O)[C@@H](O[C@H]5[C@H](O)[C@@H](O)[C@@H](O[C@H]6[C@H](O)[C@@H](O)[C@@H](O[C@H]7[C@H](O)[C@@H](O)C(O)O[C@@H]7CO)O[C@@H]6CO)O[C@@H]5CO)O[C@@H]4CO)O[C@@H]3CO)O[C@@H]2CO)[C@H](O)[C@@H](O)[C@@H]1O (stereo partly shown) , what is its reported TΔS?
Reply: -2.69

Ask: I'd like to know its TΔS. The compound in question is OC[C@H]1O[C@H](O[C@H]2[C@H](O)[C@@H](O)[C@@H](O[C@H]3[C@H](O)[C@@H](O)[C@@H](O[C@H]4[C@H](O)[C@@H](O)[C@@H](O[C@H]5[C@H](O)[C@@H](O)C(O)O[C@@H]5CO)O[C@@H]4CO)O[C@@H]3CO)O[C@@H]2CO)[C@H](O)[C@@H](O)[C@@H]1O (stereo partly shown)
Reply: -3.03

Ask: Give the measured TΔS of OC[C@H]1O[C@H](O[C@H]2[C@H](O)[C@@H](O)[C@@H](O[C@H]3[C@H](O)[C@@H](O)[C@@H](O[C@H]4[C@H](O)[C@@H](O)C(O)O[C@@H]4CO)O[C@@H]3CO)O[C@@H]2CO)[C@H](O)[C@@H](O)[C@@H]1O (stereo partly shown) .
Reply: 0.664

Ask: So what's the measured TΔS for this one? OC[C@H]1O[C@H](O[C@H]2[C@H](O)[C@@H](O)[C@@H](O[C@H]3[C@H](O)[C@@H](O)C(O)O[C@@H]3CO)O[C@@H]2CO)[C@H](O)[C@@H](O)[C@@H]1O (stereo partly shown)
Reply: 20.4

====

# EXPERIMENTAL TARGET: Athe_2574 (Anaerocellum bescii)
# EXPERIMENT: biochemical
# Type: binding
# COND: ITC 25 °C, single-site binding model
Consider the following compounds; for each one, report its n (stoichiometry).

Ask: I would be grateful if you could share the reported n (stoichiometry) for OC[C@H]1O[C@H](O[C@H]2[C@H](O)[C@@H](O)[C@@H](O[C@H]3[C@H](O)[C@@H](O)[C@@H](O[C@H]4[C@H](O)[C@@H](O)C(O)O[C@@H]4CO)O[C@@H]3CO)O[C@@H]2CO)[C@H](O)[C@@H](O)[C@@H]1O (stereo partly shown) .
Reply: 0.98 ± 0.01

Ask: Any idea what n (stoichiometry) was measured for OC[C@H]1O[C@H](O[C@H]2[C@H](O)[C@@H](O)[C@@H](O[C@H]3[C@H](O)[C@@H](O)[C@@H](O[C@H]4[C@H](O)[C@@H](O)[C@@H](O[C@H]5[C@H](O)[C@@H](O)[C@@H](O[C@H]6[C@H](O)[C@@H](O)[C@@H](O[C@H]7[C@H](O)[C@@H](O)C(O)O[C@@H]7CO)O[C@@H]6CO)O[C@@H]5CO)O[C@@H]4CO)O[C@@H]3CO)O[C@@H]2CO)[C@H](O)[C@@H](O)[C@@H]1O (stereo partly shown) ?
Reply: 0.82 ± 0.00

Ask: Item under review: OC[C@H]1O[C@H](O[C@H]2[C@H](O)[C@@H](O)[C@@H](O[C@H]3[C@H](O)[C@@H](O)[C@@H](O[C@H]4[C@H](O)[C@@H](O)[C@@H](O[C@H]5[C@H](O)[C@@H](O)C(O)O[C@@H]5CO)O[C@@H]4CO)O[C@@H]3CO)O[C@@H]2CO)[C@H](O)[C@@H](O)[C@@H]1O (stereo partly shown) . Reported n (stoichiometry)?
Reply: 0.90 ± 0.00

Ask: Give its n (stoichiometry) value. Item: OC[C@H]1O[C@H](O[C@H]2[C@H](O)[C@@H](O)[C@@H](O[C@H]3[C@H](O)[C@@H](O)C(O)O[C@@H]3CO)O[C@@H]2CO)[C@H](O)[C@@H](O)[C@@H]1O (stereo partly shown)
Reply: 1.57 ± 85.80

====

# EXPERIMENTAL TARGET: Athe_2310 (Anaerocellum bescii, UniProt A0ABY1S743)
# Sequence (A0ABY1S743 entry or part of it): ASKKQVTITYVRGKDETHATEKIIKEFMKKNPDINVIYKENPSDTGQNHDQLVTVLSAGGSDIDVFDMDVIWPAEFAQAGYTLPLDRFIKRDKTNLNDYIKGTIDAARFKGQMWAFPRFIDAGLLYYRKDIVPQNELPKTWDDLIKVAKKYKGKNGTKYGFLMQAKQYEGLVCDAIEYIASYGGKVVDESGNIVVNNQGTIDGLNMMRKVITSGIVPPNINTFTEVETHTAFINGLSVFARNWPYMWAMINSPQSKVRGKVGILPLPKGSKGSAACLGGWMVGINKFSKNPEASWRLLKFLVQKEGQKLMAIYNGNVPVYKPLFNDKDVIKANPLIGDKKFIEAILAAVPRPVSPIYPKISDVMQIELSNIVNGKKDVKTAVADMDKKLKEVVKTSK
# EXPERIMENT: ITC of Athe_2310 with ɑ-glucan substrates
# Assay type: binding
ASSAY ENDPOINT: Kd (µM)
Your answer is read as µM, so omit the unit and give the number.

Ask: # query: Kd | item OC[C@H]1O[C@H](O[C@H]2[C@H](O)[C@@H](O)[C@H](O)O[C@@H]2CO)[C@H](O)[C@@H](O)[C@@H]1O [Maltose, D-Maltose Monohydrate] | system: Athe_2310 (Anaerocellum bescii, UniProt A0ABY1S743)
Reply: 3.93

====

# EXPERIMENTAL TARGET: Athe_2574 (Anaerocellum bescii, UniProt A0ABY1S640)
# EXPERIMENT: biochemical
# Assay type: binding
# COND: ITC 25 °C, Ka=1/Kd
# Description: Proteins were dialyzed into the following buffer: 50 mM HEPES, 300 mM NaCl, pH 7.0 via 10 kDa MWCO PES filter 20 mL Spin-X Concentrators (Corning). […] Integrated heat effects were determined by non-linear regression using a single-site binding model (Microcal PEAQ-ITC Analysis). The fitted isotherms yield the binding dissociation constant and other thermodynamic parameters calculated using the differential form of the Gibbs Free Energy equation ΔGd=-RTln(Kd) . […]
Assign Ka to each entry below.
Write the answer as a number in M⁻¹, unit excluded.

Ask: Recorded Ka of OC[C@H]1O[C@H](O[C@H]2[C@H](O)[C@@H](O)[C@@H](O[C@H]3[C@H](O)[C@@H](O)[C@@H](O[C@H]4[C@H](O)[C@@H](O)C(O)O[C@@H]4CO)O[C@@H]3CO)O[C@@H]2CO)[C@H](O)[C@@H](O)[C@@H]1O (stereo partly drawn) [MalG4, D-Maltotetraose] , please.
Reply: 5.848e+06

Ask: Query (compound): OC[C@H]1O[C@H](O[C@H]2[C@H](O)[C@@H](O)[C@@H](O[C@H]3[C@H](O)[C@@H](O)[C@@H](O[C@H]4[C@H](O)[C@@H](O)[C@@H](O[C@H]5[C@H](O)[C@@H](O)C(O)O[C@@H]5CO)O[C@@H]4CO)O[C@@H]3CO)O[C@@H]2CO)[C@H](O)[C@@H](O)[C@@H]1O (stereo partly drawn) [MalG5, D-Maltopentaose] ; field requested: Ka
Reply: 9.901e+06

Ask: Need Ka of OC[C@H]1O[C@H](O[C@H]2[C@H](O)[C@@H](O)[C@@H](O[C@H]3[C@H](O)[C@@H](O)C(O)O[C@@H]3CO)O[C@@H]2CO)[C@H](O)[C@@H](O)[C@@H]1O (stereo partly drawn) [MalG3, D-Maltotriose] , thanks.
Reply: 1900

Ask: If you can, please state the reported Ka value of OC[C@H]1O[C@H](O[C@H]2[C@H](O)[C@@H](O)[C@@H](O[C@H]3[C@H](O)[C@@H](O)[C@@H](O[C@H]4[C@H](O)[C@@H](O)[C@@H](O[C@H]5[C@H](O)[C@@H](O)[C@@H](O[C@H]6[C@H](O)[C@@H](O)[C@@H](O[C@H]7[C@H](O)[C@@H](O)C(O)O[C@@H]7CO)O[C@@H]6CO)O[C@@H]5CO)O[C@@H]4CO)O[C@@H]3CO)O[C@@H]2CO)[C@H](O)[C@@H](O)[C@@H]1O (stereo partly drawn) [MalG7, D-Maltoheptaose] .
Reply: 2.0492e+07

====

# EXPERIMENTAL TARGET: Athe_2574 (Anaerocellum bescii)
# EXPERIMENT: biochemical
# Type: binding
# COND: ITC 25 °C
ASSAY ENDPOINT: ΔG (kcal/mol)
State the answer as a number, implicitly in kcal/mol.

Ask: Reported ΔG for OC[C@H]1O[C@H](O[C@H]2[C@H](O)[C@@H](O)[C@@H](O[C@H]3[C@H](O)[C@@H](O)[C@@H](O[C@H]4[C@H](O)[C@@H](O)[C@@H](O[C@H]5[C@H](O)[C@@H](O)C(O)O[C@@H]5CO)O[C@@H]4CO)O[C@@H]3CO)O[C@@H]2CO)[C@H](O)[C@@H](O)[C@@H]1O (stereo partly drawn) [MalG5, D-Maltopentaose] : what is it?
Reply: -9.56

Ask: Look up ΔG for this compound: OC[C@H]1O[C@H](O[C@H]2[C@H](O)[C@@H](O)[C@@H](O[C@H]3[C@H](O)[C@@H](O)[C@@H](O[C@H]4[C@H](O)[C@@H](O)[C@@H](O[C@H]5[C@H](O)[C@@H](O)[C@@H](O[C@H]6[C@H](O)[C@@H](O)[C@@H](O[C@H]7[C@H](O)[C@@H](O)C(O)O[C@@H]7CO)O[C@@H]6CO)O[C@@H]5CO)O[C@@H]4CO)O[C@@H]3CO)O[C@@H]2CO)[C@H](O)[C@@H](O)[C@@H]1O (stereo partly drawn) [MalG7, D-Maltoheptaose]
Reply: -9.98

Ask: Consider the compound shown here: OC[C@H]1O[C@H](O[C@H]2[C@H](O)[C@@H](O)[C@@H](O[C@H]3[C@H](O)[C@@H](O)[C@@H](O[C@H]4[C@H](O)[C@@H](O)C(O)O[C@@H]4CO)O[C@@H]3CO)O[C@@H]2CO)[C@H](O)[C@@H](O)[C@@H]1O (stereo partly drawn) [MalG4, D-Maltotetraose] What is its recorded ΔG?
Reply: -9.24

Ask: What does the record list as ΔG for OC[C@H]1O[C@H](O[C@H]2[C@H](O)[C@@H](O)[C@@H](O[C@H]3[C@H](O)[C@@H](O)C(O)O[C@@H]3CO)O[C@@H]2CO)[C@H](O)[C@@H](O)[C@@H]1O (stereo partly drawn) [MalG3, D-Maltotriose] ?
Reply: -4.48
